Items are presented alongside their recorded SI (selectivity index, COX-2/COX-1).
molecular target: COX-2 (Homo sapiens, UniProt P35354); construct: purchased BioVision incorporated USA K548–100; assay: biochemical; conditions: at 10 μM

- molecule: "CCOP(=O)(OCC)N1C/C(=C\\c2ccc(OC)cc2)C(=O)C2(C1)C(c1ccc(OC)cc1)CN(C)C21C(=O)Nc2ccccc21 (stereo not drawn) [Compound 17p]"
  SI (selectivity index, COX-2/COX-1): 1.10
- molecule: "CCOP(=O)(OCC)N1C/C(=C\\c2ccccc2)C(=O)C2(C1)C(c1ccccc1)CN(C)C21C(=O)Nc2ccc(C)cc21 (stereo not drawn) [Compound 17d]"
  SI (selectivity index, COX-2/COX-1): 0.82
- molecule: "CCOP(=O)(OCC)N1C/C(=C\\c2ccc(Cl)cc2)C(=O)C2(C1)C(c1ccc(Cl)cc1)CN(C)C21C(=O)Nc2ccc(Cl)cc21 (stereo not drawn) [Compound 17j]"
  SI (selectivity index, COX-2/COX-1): 1.05

* * *

system: TNF-α; experiment: TNF-α inhibitory properties (ELISA), PaCa2 cell lysate; type: cell-based, human; settings: at 10 μM, control 111.8 ± 2.0
Entry flag: YES if TNF-α pg/mL (± SEM) PaCa2 reaches 90 pg/mL; NO if it does not.

- compound: "CCOP(=O)(OCC)N1C/C(=C\\c2cccs2)C(=O)C2(C1)C(c1cccs1)CN(C)C21C(=O)Nc2ccc(F)cc21 (stereo not drawn) [Compound 17r]"
  measured.target: "TNF-α"
  label.value: "NO"
- compound: "COc1ccc2c(c1)c(CC(=O)O)c(C)n2C(=O)c1ccc(Cl)cc1 [Indomethacin, reference compound]"
  measured.target: "TNF-α"
  label.value: "NO"
- compound: "CCOP(=O)(OCC)N1C/C(=C\\c2ccc(OC)cc2)C(=O)C2(C1)C(c1ccc(OC)cc1)CN(C)C21C(=O)Nc2ccccc21 (stereo not drawn) [Compound 17p]"
  measured.target: "TNF-α"
  label.value: "NO"
- compound: "CCOP(=O)(OCC)N1C/C(=C\\c2ccccc2)C(=O)C2(C1)C(c1ccccc1)CN(C)C21C(=O)Nc2ccc(C)cc21 (stereo not drawn) [Compound 17d]"
  measured.target: "TNF-α"
  label.value: "YES"
- compound: "CCOP(=O)(OCC)N1C/C(=C\\c2ccccc2)C(=O)C2(C1)C(c1ccccc1)CN(C)C21C(=O)Nc2ccc(Cl)cc21 (stereo not drawn) [Compound 17c]"
  measured.target: "TNF-α"
  label.value: "NO"

* * *

tested on: RPE1 (normal human immortalized retinal pigment epithelial cell line); assay: cells; assay type: cell-based; settings: Homo sapiens, RPE-1; MTT, normal RPE1 cell; read-out: IC50, μM ± SEM RPE1
Mark met for IC50 under 20 µM, not met if at or over.

- molecule: "CCOP(=O)(OCC)N1C/C(=C\\c2cccs2)C(=O)C2(C1)C(c1cccs1)CN(C)C21C(=O)Nc2ccc(F)cc21 (stereo not shown) [Compound 17r]"
  label.value: "met"
- molecule: "CCOP(=O)(OCC)N1C/C(=C\\c2ccccc2)C(=O)C2(C1)C(c1ccccc1)CN(C)C21C(=O)Nc2ccc(F)cc21 (stereo not shown) [Compound 17b]"
  label.value: "not met"
- molecule: "CCOP(=O)(OCC)N1C/C(=C\\c2cccs2)C(=O)C2(C1)C(c1cccs1)CN(C)C21C(=O)Nc2ccccc21 (stereo not shown) [Compound 17q]"
  label.value: "not met"
- molecule: "CCOP(=O)(OCC)N1C/C(=C\\c2cccs2)C(=O)C2(C1)C(c1cccs1)CN(C)C21C(=O)Nc2ccc(Cl)cc21 (stereo not shown) [Compound 17s]"
  label.value: "met"
- molecule: "CCOP(=O)(OCC)N1C/C(=C\\c2ccc(Cl)cc2)C(=O)C2(C1)C(c1ccc(Cl)cc1)CN(C)C21C(=O)Nc2ccc(F)cc21 (stereo not shown) [Compound 17i]"
  label.value: "not met"
- molecule: "CCOP(=O)(OCC)N1C/C(=C\\c2ccccc2)C(=O)C2(C1)C(c1ccccc1)CN(C)C21C(=O)Nc2ccc(C)cc21 (stereo not shown) [Compound 17d]"
  label.value: "met"
- molecule: "CCOP(=O)(OCC)N1C/C(=C\\c2ccc(C)cc2)C(=O)C2(C1)C(c1ccc(C)cc1)CN(C)C21C(=O)Nc2ccccc21 (stereo not shown) [Compound 17m]"
  label.value: "met"

* * *

Biological target: COX-2 (Homo sapiens, UniProt P35354)
Construct: purchased BioVision incorporated USA K548–100
Sequence (P35354 18-604): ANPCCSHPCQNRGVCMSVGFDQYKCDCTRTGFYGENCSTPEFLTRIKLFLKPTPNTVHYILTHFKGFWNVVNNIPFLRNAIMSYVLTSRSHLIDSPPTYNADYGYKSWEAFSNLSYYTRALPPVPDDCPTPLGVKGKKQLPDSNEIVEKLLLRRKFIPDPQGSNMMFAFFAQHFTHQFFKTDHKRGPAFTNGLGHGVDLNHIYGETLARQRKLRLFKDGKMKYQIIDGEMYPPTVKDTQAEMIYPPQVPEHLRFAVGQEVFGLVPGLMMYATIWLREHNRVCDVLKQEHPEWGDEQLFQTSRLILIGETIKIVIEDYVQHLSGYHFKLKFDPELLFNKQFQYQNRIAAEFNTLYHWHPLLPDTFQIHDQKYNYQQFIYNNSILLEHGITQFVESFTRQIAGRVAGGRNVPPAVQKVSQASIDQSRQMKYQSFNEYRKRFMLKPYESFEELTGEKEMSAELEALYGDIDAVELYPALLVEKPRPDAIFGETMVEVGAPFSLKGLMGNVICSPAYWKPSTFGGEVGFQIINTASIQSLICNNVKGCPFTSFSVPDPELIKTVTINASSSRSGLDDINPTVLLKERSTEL
Experiment: biochemical
Conditions: at 10 μM
Labelling: SI (selectivity index, COX-2/COX-1) reported below 1 becomes 1.0; at or above becomes 0.0.

- molecule: "CCOP(=O)(OCC)N1C/C(=C\\c2ccc(Cl)cc2)C(=O)C2(C1)C(c1ccc(Cl)cc1)CN(C)C21C(=O)Nc2ccccc21 (centres unmarked) [Compound 17h]"
  label.value: 0.0
- molecule: "CCOP(=O)(OCC)N1C/C(=C\\c2ccc(C)cc2)C(=O)C2(C1)C(c1ccc(C)cc1)CN(C)C21C(=O)Nc2ccc(Cl)cc21 (centres unmarked) [Compound 17o]"
  label.value: 0.0
- molecule: "CCOP(=O)(OCC)N1C/C(=C\\c2ccc(C)cc2)C(=O)C2(C1)C(c1ccc(C)cc1)CN(C)C21C(=O)Nc2ccccc21 (centres unmarked) [Compound 17m]"
  label.value: 1.0
- molecule: "CCOP(=O)(OCC)N1C/C(=C\\c2ccccc2)C(=O)C2(C1)C(c1ccccc1)CN(C)C21C(=O)Nc2ccc(Cl)cc21 (centres unmarked) [Compound 17c]"
  label.value: 0.0
- molecule: "CCOP(=O)(OCC)N1C/C(=C\\c2cccs2)C(=O)C2(C1)C(c1cccs1)CN(C)C21C(=O)Nc2ccccc21 (centres unmarked) [Compound 17q]"
  label.value: 1.0
- molecule: "CCOP(=O)(OCC)N1C/C(=C\\c2cccs2)C(=O)C2(C1)C(c1cccs1)CN(C)C21C(=O)Nc2ccc(F)cc21 (centres unmarked) [Compound 17r]"
  label.value: 0.0
- molecule: "CCOP(=O)(OCC)N1C/C(=C\\c2cccs2)C(=O)C2(C1)C(c1cccs1)CN(C)C21C(=O)Nc2ccc(Cl)cc21 (centres unmarked) [Compound 17s]"
  label.value: 1.0

* * *

test system: PaCa2 (pancreatic) cancer cell line; experiment: 2D-monolayer antiproliferation (MTT) against PaCa2; format: cell-based, human; details: IC50 of RPE1 normal cell/IC50 of PaCa2
Below, each of the compounds is paired with its reported SI (selectivity index) PaCa2 value.

- compound: "CCOP(=O)(OCC)N1C/C(=C\\c2ccccc2)C(=O)C2(C1)C(c1ccccc1)CN(C)C21C(=O)Nc2ccc(C)cc21 (stereo not drawn) [Compound 17d]"
  measured.target: "PaCa2 (pancreatic) cancer cell line"
  SI (selectivity index) PaCa2: 1.2
- compound: "CCOP(=O)(OCC)N1C/C(=C\\c2ccc(Cl)cc2)C(=O)C2(C1)C(c1ccc(Cl)cc1)CN(C)C21C(=O)Nc2ccc(Cl)cc21 (stereo not drawn) [Compound 17j]"
  measured.target: "PaCa2 (pancreatic) cancer cell line"
  SI (selectivity index) PaCa2: "> 7.2"
- compound: "CCOP(=O)(OCC)N1C/C(=C\\c2ccc(Cl)cc2)C(=O)C2(C1)C(c1ccc(Cl)cc1)CN(C)C21C(=O)Nc2ccccc21 (stereo not drawn) [Compound 17h]"
  measured.target: "PaCa2 (pancreatic) cancer cell line"
  SI (selectivity index) PaCa2: 1.3
- compound: "CCOP(=O)(OCC)N1C/C(=C\\c2ccc(F)cc2)C(=O)C2(C1)C(c1ccc(F)cc1)CN(C)C21C(=O)Nc2ccc(C)cc21 (stereo not drawn) [Compound 17g]"
  measured.target: "PaCa2 (pancreatic) cancer cell line"
  SI (selectivity index) PaCa2: 3.1
- compound: "CCOP(=O)(OCC)N1C/C(=C\\c2ccc(F)cc2)C(=O)C2(C1)C(c1ccc(F)cc1)CN(C)C21C(=O)Nc2ccccc21 (stereo not drawn) [Compound 17e]"
  measured.target: "PaCa2 (pancreatic) cancer cell line"
  SI (selectivity index) PaCa2: 1.8
- compound: "CCOP(=O)(OCC)N1C/C(=C\\c2cccs2)C(=O)C2(C1)C(c1cccs1)CN(C)C21C(=O)Nc2ccc(F)cc21 (stereo not drawn) [Compound 17r]"
  measured.target: "PaCa2 (pancreatic) cancer cell line"
  SI (selectivity index) PaCa2: 2.1
